test system: Plasmodium berghei; test: Antimalarial activity as parasitaemia after 14 days against Plasmodium berghei NK65 infected JCL-ICR mice (Mus musculus) at 100 mg/kg; format: functional
Please mark YES if the recorded Activity is equal to or greater than 70%, and NO if it falls below.

Take a look at these entries with their results.
CN(C)/N=N/c1ccc(Cl)cc1 = NO
Cc1cc(C)c(/N=N/N(C)C)c(C)c1 = YES

Dear colleague, could you confirm whether Cc1cc(C)c(/N=N/N2CCCC2)c(C)c1 has Activity at or above 70%? YES

Dear colleague, could you confirm whether CN(C)/N=N/c1ccc(F)cc1 has Activity at or above 70%? NO

Dear colleague, could you confirm whether Cc1cccc(C)c1/N=N/N1CCCC1 has Activity at or above 70%? YES
